# Method Notes: qHTS assay to identify small molecule agonists of the estrogen related receptor (ERR) signaling pathway from Tox21 library (AID 1224849); further: on the % scale 0 is the no-effect control and ±100 the full control effect
# Cond: ERR reporter cell line, ONE-Glo luciferase, 18 h; at 92.4 µM (top of the series)
Property Label: activity change, positive = activation (%)
Answers are plain numbers, in %.

Example entries and their recorded answers appear below.
* C=CC(N)=O | 7.14
* CN1C(=O)CN=C(c2ccccc2)c2cc(Cl)ccc21 | -13.2

Parameter requested: activity change, positive = activation. Apply to each item below.
1. CC(C)OC(=O)Nc1cccc(Cl)c1
2. CC(C)(C)OOC(C)(C)C

1: 3.6; 2: -1.09
